biological target: CDK7/CycH/Mat1 (Homo sapiens, UniProt P50613); construct: purchased Carna; test: CDK7 Enzymatic Activity Assay (Lance Kinase Activity Assay, FRET); type: biochemical; conditions: Table 5A; 25 μM ATP final; read-out: CDK7: IC50 [mM] for CDK7 inhibition (the above defined ranges apply)
Sequence (P50613 whole entry): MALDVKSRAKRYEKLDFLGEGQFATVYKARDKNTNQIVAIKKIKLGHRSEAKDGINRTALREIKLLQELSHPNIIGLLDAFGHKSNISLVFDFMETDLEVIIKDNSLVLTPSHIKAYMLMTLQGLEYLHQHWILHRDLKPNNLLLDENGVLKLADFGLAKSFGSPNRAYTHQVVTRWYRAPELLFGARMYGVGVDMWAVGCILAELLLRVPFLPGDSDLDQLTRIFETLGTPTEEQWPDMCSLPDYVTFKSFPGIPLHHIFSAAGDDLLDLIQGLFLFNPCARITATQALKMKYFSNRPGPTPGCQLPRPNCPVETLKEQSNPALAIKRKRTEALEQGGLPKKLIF
Sequence (P51946 whole entry partner): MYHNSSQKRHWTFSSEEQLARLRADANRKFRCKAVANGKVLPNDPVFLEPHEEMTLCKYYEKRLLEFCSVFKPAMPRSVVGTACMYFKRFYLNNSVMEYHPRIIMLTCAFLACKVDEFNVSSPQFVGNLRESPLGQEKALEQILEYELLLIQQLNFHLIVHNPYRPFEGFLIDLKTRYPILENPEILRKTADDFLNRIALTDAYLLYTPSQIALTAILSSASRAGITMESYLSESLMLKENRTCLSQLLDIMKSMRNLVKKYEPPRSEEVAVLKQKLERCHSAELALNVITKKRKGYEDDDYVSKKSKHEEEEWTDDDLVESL
Sequence (P51948 whole entry partner): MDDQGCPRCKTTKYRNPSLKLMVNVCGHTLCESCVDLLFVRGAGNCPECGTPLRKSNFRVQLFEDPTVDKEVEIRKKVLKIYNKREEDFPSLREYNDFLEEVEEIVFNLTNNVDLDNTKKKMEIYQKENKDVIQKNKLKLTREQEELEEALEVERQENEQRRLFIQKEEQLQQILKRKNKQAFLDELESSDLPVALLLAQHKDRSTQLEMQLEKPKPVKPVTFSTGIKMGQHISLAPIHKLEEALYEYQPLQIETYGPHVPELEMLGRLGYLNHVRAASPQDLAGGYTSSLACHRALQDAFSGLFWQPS
Metric: IC50

// known answers, use as guide
COc1ccc([C@H](C)Nc2nc(OC3CCN(C)CC3)nc3c(C(C)C)cnn23)cc1
> 100 nM
COc1cccc([C@H](C)Nc2nc(N3CCCC(N)C3)nc3c(C(C)C)cnn23)c1 (some centres unmarked)
> 100 nM
COc1ccccc1[C@H](C)Nc1nc(N[C@@H]2CCCNC2)nc2c(C(C)C)cnn12
< 10 nM
CC(C)c1cnn2c(N[C@@H](C)c3ccccc3Cl)nc(O[C@@H]3CCCNC3)nc12
< 10 nM
COc1cccc([C@H](C)Nc2nc(OCCN3CCNCC3)nc3c(C(C)C)cnn23)c1
> 100 nM
CC(C)c1cnn2c(N[C@@H](C)c3cccc4ccccc34)nc(O[C@@H]3CCCNC3)nc12
10 to 30 nM
COc1cccc([C@H](C)Nc2nc(CNC3CCNC3)nc3c(C(C)C)cnn23)c1 (some centres unmarked)
30 to 100 nM

Let us examine a further case.
# input compound: CC(C)c1cnn2c(NC(C)c3ccccc3C3CC3)nc(O[C@@H]3CCCNC3)nc12 (some centres unmarked) ; wanted: its IC50
> 100 nM

Sourced from patent US9096608B2
